B1: TPR 5TU (parent)
chain: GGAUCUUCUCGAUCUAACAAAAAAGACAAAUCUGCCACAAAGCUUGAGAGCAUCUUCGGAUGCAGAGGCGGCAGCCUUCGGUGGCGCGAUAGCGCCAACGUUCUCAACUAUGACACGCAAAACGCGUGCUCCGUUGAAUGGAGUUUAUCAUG

variants of: B1; assay: polymerase ribozyme fitness, log enrichment relative to wild type (log ratio); higher = more active; in vitro selection for triplet polymerase activity
This sample holds only a part of the variants without activity.
OBSERVABLE: polymerase ribozyme fitness (log ratio)
# output: bare number, no unit

The cases that follow already have their polymerase ribozyme fitness (log ratio) on record.
G92U G133U; -3.41
U45G G84U A113U; -4.1
U53A A97C A113G; -3.54
U4C C103A U139C; -3.94
C75G C118U; -3.87

// polymerase ribozyme fitness (log ratio) lookup, variant = G84U G126U , result: -1.45
